// values below are reported MIC
System: Salmonella typhi
Assay Method Text: Antimicrobial activity against Salmonella typhi MTCC 98 by broth microdilution method
Format: functional, Salmonella enterica subsp. enterica serovar Typhi
Experimental Conditions: Salmonella enterica

| Smiles Text | Units Label | MIC |
| --- | --- | --- |
| Cc1cn(-c2c(-c3cc(-c4cccs4)nc(N)c3C#N)c(C)nn2-c2ccccc2)cn1 | µg/mL | 250 |
| Cc1cn(-c2c(-c3cc(-c4ccc(F)cc4)nc(N)c3C#N)c(C)nn2-c2ccccc2)cn1 | µg/mL | 250 |
| Cc1nn(-c2ccccc2)c(-n2ccnc2)c1-c1cc(-c2ccc(Cl)cc2)nc(N)c1C#N | µg/mL | 200 |
| CC1(C)S[C@@H]2[C@H](NC(=O)[C@H](N)c3ccccc3)C(=O)N2[C@H]1C(=O)O | µg/mL | 100 |
